Where do these numbers come from? They come from patent US20240383953A1.

molecular target: dsDNA GATA6-AF488/GATA6-AF647; experiment: fEMSA with dsDNA; type: binding; settings: fEMSA; read-out: dsDNA affinity (50% free DNA)
assay-readout: Kd

[[record]]
sequence_chain = "WSNQTWNNSTWSNQTQNIQSWSNHSRRRKK [1-4wRK]"
system_under_test = "dsDNA GATA6-AF488/GATA6-AF647"
assay_result = "~1 µM"

